# testedSystem: M3 (Homo sapiens, UniProt P20309)
# Sequence (P20309 whole entry): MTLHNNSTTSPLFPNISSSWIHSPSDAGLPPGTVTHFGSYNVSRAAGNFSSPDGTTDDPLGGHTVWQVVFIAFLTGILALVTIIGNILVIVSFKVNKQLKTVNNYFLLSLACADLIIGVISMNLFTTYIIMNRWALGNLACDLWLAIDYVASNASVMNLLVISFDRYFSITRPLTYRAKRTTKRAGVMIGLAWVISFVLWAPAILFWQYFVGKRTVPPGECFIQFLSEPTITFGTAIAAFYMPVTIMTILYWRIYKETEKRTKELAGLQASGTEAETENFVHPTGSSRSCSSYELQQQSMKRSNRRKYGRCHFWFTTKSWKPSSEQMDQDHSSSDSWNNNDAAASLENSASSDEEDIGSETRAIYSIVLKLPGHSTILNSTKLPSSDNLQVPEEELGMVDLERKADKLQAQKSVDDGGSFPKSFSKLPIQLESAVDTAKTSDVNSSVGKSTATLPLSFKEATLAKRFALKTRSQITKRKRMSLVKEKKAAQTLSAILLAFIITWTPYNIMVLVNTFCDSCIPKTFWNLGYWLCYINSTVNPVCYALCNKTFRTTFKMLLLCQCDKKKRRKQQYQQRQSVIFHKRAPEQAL
# assayMethodText: In vitro functional assay of muscarinic acetylcholine receptor activity, M3
# Assay type: cell-based
# testContext: antagonist IC50 at M3; read-out: M3 IC50
measureName: IC50

Solved cases (3 shown):
Could you share which IC50 value was measured for CC1CN(C(=O)CCCc2cccc3ncccc23)CCN1c1ccncc1 (centres unmarked) ?
1 to 10 µM

Could you share which IC50 value was measured for N#Cc1ccc(N2C3CCC2CN(C(=O)CCNCc2cccc4ncnn24)C3)nc1 ?
> 10 µM

Could you share which IC50 value was measured for O=C(CCNCc1cccc2nccn12)N1CC2CCC(C1)N2c1ccncc1F ?
> 10 µM

Hey, can you go through the list below and give me IC50 for every item?
1. N#Cc1cc(N2CCN(C(=O)CCS(=O)(=O)c3cccc4ncsc34)CC2)ccn1
2. N#Cc1ccc(N2C3CCC2CN(C(=O)CCN(Cc2cccc4ncnn24)C2COC2)C3)nc1

1: 1 to 10 µM; 2: > 10 µM
